Each entry below lists one item and its recorded %Inh value.
# Tested on: MLK3
# test.settings: concentration: 1 μM,replicates: in singlicate; n = 1;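 also: KINOMEscan kinase panel screen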

compound: CCN(CC)CCCCNc1ncc2cc(-c3c(Cl)cccc3Cl)c(NC(=O)NC(C)(C)C)nc2n1
%Inh: 4%
//
compound: CNC(=O)c1ccccc1Sc1ccc2c(/C=C/c3ccccn3)n[nH]c2c1
%Inh: 1%
//
compound: CN(C)CCOc1ccc(-c2cc(-c3c[nH]nc3-c3ccccn3)ccn2)cc1 [GW835314]
%Inh: 19%
//
compound: Cc1ccc2c(-c3ccncc3)c(-c3ccc(F)cc3)nn2c1.Cl [GW461484]
%Inh: 0%
//
compound: O=C(NCCNc1ccnc(NCc2ccc(F)cc2)n1)c1cc2ccccc2s1 [GSK1379944]
%Inh: 0%
//
compound: C[C@@H]1CCN(C(=O)CC#N)C[C@@H]1N(C)c1ncnc2[nH]ccc12
%Inh: 3%
//
compound: C[C@H]1Oc2cc(cnc2N)-c2c(nn(C)c2C#N)CN(C)C(=O)c2ccc(F)cc21
%Inh: 23%
//
compound: COc1ccc(C[C@@H](CN)NC(=O)c2cc(Br)c(-c3ccnc4[nH]ccc34)s2)cc1.Cl.Cl [GSK1389063]
%Inh: 0%
//
compound: CC(C)Nc1cc(-c2ccc3c(N)n[nH]c3c2)nc(N)n1 [GSK2221681]
%Inh: 9%
//
compound: CCn1c(-c2nonc2N)nc2c(C#CC(C)(C)O)nc(OCCN)cc21.Cl.Cl [GSK902056]
%Inh: 0%
//
compound: Cl.Cl.Nc1nc(-c2ccc3c(N)n[nH]c3c2)cc(N2CCCC(NC(=O)c3ccccc3)C2)n1 (stereo not shown) [GSK2286775]
%Inh: 0%
//
compound: O=C(NCCCN1CCOC1=O)c1cnc(NCc2cc(Cl)ccc2Cl)nc1NC1CCCC1
%Inh: 23%
//
compound: NC(=O)c1cc(-c2ccccc2)cc2c(C3CCNCC3)c[nH]c12 [GSK301362]
%Inh: 0%
//
compound: Cl.Cl.NC[C@H](Cc1ccc(C(F)(F)F)cc1)NC(=O)c1cc(Br)c(-c2ccnc3[nH]ccc23)s1 [GSK1487252]
%Inh: 0%
//
compound: Cc1occc1-c1nc(N)c(OC[C@@H](N)Cc2c[nH]c3ccccc23)cc1-c1cc2c(C)n[nH]c2cn1 [GSK1660450]
%Inh: 22%
//
compound: CN(C)CC(O)COc1ccc(Nc2nccc(-c3cnn4nc(N5CCOCC5)ccc34)n2)cc1 (stereo not shown) [GW767488]
%Inh: 18%

----------
# Test system: MST4
# test.settings: concentration: 1 μM,replicates: in singlicate; n = 1
quantity: %Inh (%)

compound: Cl.Oc1cc(-c2nc(-c3ccccc3)[nH]c2-c2ccncc2)ccc1Cl [SB-386023]
units: %
experimental.value: 9
--
compound: CN(C)CC(O)COc1ccc(Nc2nccc(-c3cnn4nc(N5CCOCC5)ccc34)n2)cc1 (stereo not drawn) [GW767488]
units: %
experimental.value: 46
--
compound: Cc1ccc2c(-c3ccncc3)c(-c3ccc(F)cc3)nn2c1.Cl [GW461484]
units: %
experimental.value: 0
--
compound: Nc1nc(Nc2ccccc2)cc(-c2ccc3c(N)n[nH]c3c2)n1 [GSK2225749]
units: %
experimental.value: 0
--
compound: O=C(NCCCN1CCOC1=O)c1cnc(NCc2cc(Cl)ccc2Cl)nc1NC1CCCC1
units: %
experimental.value: 0
--
compound: Cl.Cl.NC[C@H](CC1CCCCC1)NC(=O)c1cc(Br)c(-c2ccnc3[nH]ccc23)s1 [GSK1581427]
units: %
experimental.value: 10
--
compound: CCN(CC)CCCCNc1ncc2cc(-c3c(Cl)cccc3Cl)c(NC(=O)NC(C)(C)C)nc2n1
units: %
experimental.value: 86
--
compound: COc1ccc(C[C@@H](CN)NC(=O)c2cc(Br)c(-c3ccnc4[nH]ccc34)s2)cc1.Cl.Cl [GSK1389063]
units: %
experimental.value: 54
--
compound: CC(C)Nc1cc(-c2ccc3c(N)n[nH]c3c2)nc(N)n1 [GSK2221681]
units: %
experimental.value: 0
